Origin of the recorded values: ChEMBL document CHEMBL1135816

# Assay system: Progesterone receptor (Rattus norvegicus) (UniProt Q63449)
# Sequence (Q63449 whole entry): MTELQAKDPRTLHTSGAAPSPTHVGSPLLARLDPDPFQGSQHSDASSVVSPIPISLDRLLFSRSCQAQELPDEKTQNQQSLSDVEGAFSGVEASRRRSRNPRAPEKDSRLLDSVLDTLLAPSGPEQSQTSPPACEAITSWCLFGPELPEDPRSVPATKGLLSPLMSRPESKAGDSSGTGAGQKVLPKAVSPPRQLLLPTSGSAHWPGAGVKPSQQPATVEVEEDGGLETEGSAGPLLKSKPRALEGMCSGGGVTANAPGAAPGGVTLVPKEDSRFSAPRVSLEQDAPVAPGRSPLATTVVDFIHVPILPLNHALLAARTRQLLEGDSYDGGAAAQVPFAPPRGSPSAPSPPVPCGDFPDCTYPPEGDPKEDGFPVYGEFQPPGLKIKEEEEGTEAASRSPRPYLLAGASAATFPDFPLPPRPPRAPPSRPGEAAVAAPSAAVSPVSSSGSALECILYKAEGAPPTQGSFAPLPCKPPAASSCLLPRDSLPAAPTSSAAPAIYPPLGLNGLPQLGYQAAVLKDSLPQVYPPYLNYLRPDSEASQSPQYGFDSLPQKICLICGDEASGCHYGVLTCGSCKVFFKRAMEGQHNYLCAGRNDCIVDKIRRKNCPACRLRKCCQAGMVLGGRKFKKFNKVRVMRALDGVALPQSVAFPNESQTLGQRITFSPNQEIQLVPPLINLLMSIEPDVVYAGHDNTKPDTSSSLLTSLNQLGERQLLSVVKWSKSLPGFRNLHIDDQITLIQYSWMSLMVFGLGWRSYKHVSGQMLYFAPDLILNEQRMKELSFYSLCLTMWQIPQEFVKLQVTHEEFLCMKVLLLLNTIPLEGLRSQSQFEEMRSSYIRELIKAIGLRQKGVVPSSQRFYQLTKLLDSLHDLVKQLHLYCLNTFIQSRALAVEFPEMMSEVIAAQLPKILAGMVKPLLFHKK
# Experimental protocol: Inhibitory activity against progesterone receptor (PR) in ovariectomized mature female rat decidualization model
# Type: functional
Measure: ED50 (mg/kg)

# Smiles structure, Measure, Value relation sign, Result value
data = [
    ("CC1(C)OC(=O)Nc2ccc(-c3coc(C#N)c3)cc21", "ED50", "=", 0.9),
    ("CC1(C)OC(=O)Nc2ccc(-c3ccc(F)c(Cl)c3)cc21", "ED50", "=", 1),
    ("CC1(C)OC(=O)Nc2ccc(-c3cccc(Cl)c3)cc21", "ED50", ">", 30),
]
